Origin of values: patent US12172995B2

# measured on: human TLR7 (Homo sapiens, UniProt Q9NYK1)
# Construct: host or cells: HEK-Blue cells
# Sequence (Q9NYK1 27-1049): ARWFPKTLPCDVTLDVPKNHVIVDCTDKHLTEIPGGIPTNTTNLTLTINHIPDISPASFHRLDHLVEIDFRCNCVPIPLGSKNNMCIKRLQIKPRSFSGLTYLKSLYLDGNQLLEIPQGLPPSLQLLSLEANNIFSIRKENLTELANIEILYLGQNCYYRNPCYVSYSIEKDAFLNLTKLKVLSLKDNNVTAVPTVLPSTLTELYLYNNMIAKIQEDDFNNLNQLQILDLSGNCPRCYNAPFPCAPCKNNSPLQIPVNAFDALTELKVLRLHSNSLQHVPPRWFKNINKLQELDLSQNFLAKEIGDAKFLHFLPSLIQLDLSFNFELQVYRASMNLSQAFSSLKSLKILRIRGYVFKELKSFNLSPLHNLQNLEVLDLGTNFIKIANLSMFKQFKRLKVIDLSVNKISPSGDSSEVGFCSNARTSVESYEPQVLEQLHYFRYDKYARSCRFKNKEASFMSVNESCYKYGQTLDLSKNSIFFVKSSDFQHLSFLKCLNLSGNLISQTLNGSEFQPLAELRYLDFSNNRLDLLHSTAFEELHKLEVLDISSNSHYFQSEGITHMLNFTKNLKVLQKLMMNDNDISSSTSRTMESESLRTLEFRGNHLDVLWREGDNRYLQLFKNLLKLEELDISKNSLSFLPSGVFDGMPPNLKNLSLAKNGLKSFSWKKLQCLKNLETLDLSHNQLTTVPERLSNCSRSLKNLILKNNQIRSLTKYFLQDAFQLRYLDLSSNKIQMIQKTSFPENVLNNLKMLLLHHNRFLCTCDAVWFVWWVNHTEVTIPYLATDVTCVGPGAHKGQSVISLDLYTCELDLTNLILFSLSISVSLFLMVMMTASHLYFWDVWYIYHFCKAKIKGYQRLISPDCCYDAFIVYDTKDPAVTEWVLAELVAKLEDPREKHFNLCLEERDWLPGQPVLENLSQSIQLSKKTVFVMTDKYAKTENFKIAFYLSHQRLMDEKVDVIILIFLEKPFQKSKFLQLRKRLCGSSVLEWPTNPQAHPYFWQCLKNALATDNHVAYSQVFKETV
# test method notes: TLR7 inhibition reporter assay (HEK-Blue SEAP)
# Type: cell-based
# settings: HEK-Blue cells overexpressing human TLR7, stimulated with gardiquimod 7.5 μM, 22 hour incubation
measured property: log10 of IC50 (log10 of the value in nM)
In plain terms, each number is the log10 of measured IC50 in nM.

Here are 5 compounds together with their reported answers.
# compound, measured on, log10 of IC50
records = [
    ("Cc1cc2c(C3CCC(N(C)C4COC4)CC3)n[nH]c2cc1-c1cc(C)c2ncnn2c1 (single isomer, unassigned) [Example 33]", "human TLR7 (Homo sapiens, UniProt Q9NYK1)", 1.99),
    ("Cc1cc(-c2ccc3c(C(=O)NC4CCNCC4)c[nH]c3c2)cn2ncnc12", "human TLR7 (Homo sapiens, UniProt Q9NYK1)", 2.69),
    ("Cc1cc2c(C3CCN(C(=O)CN(C)C)CC3)n[nH]c2cc1-c1cc(C)c2ncnn2c1", "human TLR7 (Homo sapiens, UniProt Q9NYK1)", 1.39),
    ("Cc1cc(-c2cc3[nH]nc(C4CCC(N5CCC5)CC4)c3cc2C(C)C)cn2ncnc12 (single isomer, unassigned) [Example 139]", "human TLR7 (Homo sapiens, UniProt Q9NYK1)", 0.08),
    ("Cc1cc(-c2cc3[nH]nc(C4CCC(N5CCOCC5)CC4)c3cc2C(C)C)cn2ncnc12 (stereo not shown) [Example 132]", "human TLR7 (Homo sapiens, UniProt Q9NYK1)", -0.05),
]

Field: log10 of IC50. Fill in for each record below.
1. Cc1cc(-c2cc(C)c3ncnn3c2)cc2[nH]nc(OC3CCN(C(=O)CN(C)C)CC3)c12
2. Cc1cc(-c2ccc3c(C(=O)NC4CCNCC4)n[nH]c3c2)cn2ncnc12

result:
1: 0.71; 2: 2.35
